target: Recombinant human caspase-6 (Homo sapiens, UniProt P55212); experiment: delayed-time fluorescence caspase inhibition test, caspase-6; conditions: read-out: Inhibition IC50 Caspase-6; tested 100 nM to 200 μM, 1% DMSO, 3 h 30 min at room temperature
Sequence (P55212 24-293): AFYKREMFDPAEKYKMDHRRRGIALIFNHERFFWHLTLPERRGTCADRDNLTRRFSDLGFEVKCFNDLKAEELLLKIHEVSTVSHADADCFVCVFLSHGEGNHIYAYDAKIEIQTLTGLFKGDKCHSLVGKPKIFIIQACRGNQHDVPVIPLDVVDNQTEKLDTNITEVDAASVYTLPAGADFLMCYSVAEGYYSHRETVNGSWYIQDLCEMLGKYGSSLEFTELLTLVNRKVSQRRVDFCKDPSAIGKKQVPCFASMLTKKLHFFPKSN
pIC50: −log10 of the molar value.
value type: pIC50

O=S(=O)(NCC1(Cc2ccc(CCO)cc2)CCCC1)c1ccc(Cl)cc1 < 3.70

Next item in the queue.
## Input pIC50 for `O=S(=O)(NCC1(Cc2ccc(CCO)cc2)CCC1)c1c(F)c(F)c(F)c(F)c1F` ?
## Output < 3.70

###

biological target: Recombinant human caspase-3 (Homo sapiens, UniProt P42574); assay: delayed-time fluorescence caspase inhibition test, caspase-3
Sequence (P42574 29-277): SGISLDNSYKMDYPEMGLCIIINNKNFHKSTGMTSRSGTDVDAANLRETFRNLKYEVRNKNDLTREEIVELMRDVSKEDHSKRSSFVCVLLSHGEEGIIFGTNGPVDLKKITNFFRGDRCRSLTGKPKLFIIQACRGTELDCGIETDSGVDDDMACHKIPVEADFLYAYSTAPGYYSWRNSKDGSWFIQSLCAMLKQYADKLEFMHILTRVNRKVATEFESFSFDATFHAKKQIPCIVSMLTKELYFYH
pIC50: −log10 of the molar value.
The compounds listed here are annotated with their pIC50.

## Input State the recorded pIC50 for this entry: `O=S(=O)(NCC1(Cc2ccc(CCO)cc2)CCCC1)c1ccc(Cl)cc1Cl`
## Output < 3.70
